# Max. Tumor Uptake per entry
tested on: LNCaP xenograft tumor-bearing mice; assay: Biodistribution studies of 177Lu-labeled ligands in LNCaP xenograft mice; type: in vivo; settings: corresponding 177Lu-labeled compound; a = 4 h p.i.
Answer in % ID/g, number only, no unit symbol.

The examples below pair each entry with its known result.
Per the reported LNCaP xenograft tumor-bearing mice data, O=C(O)CC[C@H](NC(=O)N[C@@H](CCCCNC(=O)Nc1cccc(-c2cn(CCOCCOCCOCCOCCOCCOCCOCCOCCC(=O)N[C@@H](CCCCNC(=S)Nc3ccc(CC4CN(CC(=O)O)CCN(CC(=O)O)CCN(CC(=O)O)CCN4CC(=O)O)cc3)C(=O)N[C@@H](CCCCNC(=O)Cc3ccc(I)cc3)C(=O)O)nn2)c1)C(=O)O)C(=O)O (some centres unmarked) [RPS-066] has Max. Tumor Uptake of 18.7

Form field, Max. Tumor Uptake with LNCaP xenograft tumor-bearing mice, item O=C(O)CC[C@H](NC(=O)N[C@@H](CCCCNC(=O)Nc1cccc(-c2cn(CCOCCOCCOCCOCCOCCOCCC(=O)N[C@@H](CCCCNC(=S)Nc3ccc(CC4CN(CC(=O)O)CCN(CC(=O)O)CCN(CC(=O)O)CCN4CC(=O)O)cc3)C(=O)N[C@@H](CCCCNC(=O)Cc3ccc(I)cc3)C(=O)O)nn2)c1)C(=O)O)C(=O)O (some centres unmarked) [RPS-069] : 17.0

Param item: O=C(O)CCC(NC(=O)NC(CCCCNC(=O)C(Cc1ccc2ccccc2c1)NC(=O)C1CCC(CNC(=O)CN2CCN(CC(=O)O)CCN(CC(=O)O)CCN(CC(=O)O)CC2)CC1)C(=O)O)C(=O)O (centres unmarked) [PSMA-617, reference compound] ; param system: LNCaP xenograft tumor-bearing mice; output Max. Tumor Uptake: 14.4

Record O=C(O)CC[C@H](NC(=O)N[C@@H](CCCCNC(=O)Nc1cccc(-c2cn(CCOCCOCCOCCOCCC(=O)N[C@@H](CCCCNC(=S)Nc3ccc(CC4CN(CC(=O)O)CCN(CC(=O)O)CCN(CC(=O)O)CCN4CC(=O)O)cc3)C(=O)N[C@@H](CCCCNC(=O)Cc3ccc(I)cc3)C(=O)O)nn2)c1)C(=O)O)C(=O)O (some centres unmarked) [RPS-061] ; system LNCaP xenograft tumor-bearing mice; Max. Tumor Uptake = 20.4

The record that follows has no Max. Tumor Uptake shown yet.
Entry O=C(O)CC[C@H](NC(=O)N[C@@H](CCCCNC(=O)Nc1cccc(-c2cn(CCOCCOCCOCCC(=O)N[C@@H](CCCCNC(=S)Nc3ccc(CC4CN(CC(=O)O)CCN(CC(=O)O)CCN(CC(=O)O)CCN4CC(=O)O)cc3)C(=O)N[C@@H](CCCCNC(=O)Cc3ccc(I)cc3)C(=O)O)nn2)c1)C(=O)O)C(=O)O (some centres unmarked) [RPS-063] under LNCaP xenograft tumor-bearing mice had Max. Tumor Uptake of 30.0
